Listed here: items and their measured inhibition.
Biological target: Monoacylglycerol lipase ABHD6 (Mus musculus)
Test: competitive ABPP of Abhd10 versus anti-targets – biochemical, fluorescence, gel-based, mouse proteome, selectivity assay for PME-1 inhibitor project, late-stage follow-up (AID 588807)
Details: anti-target, inhibition, at 1 µM, stronger effect = higher value
// return numeric value only (unit: %, not printed)

These solved cases illustrate the format of a correct answer.
Return inhibition for the following compound: CCCOC(=O)N1C(=O)[C@@](CC)(c2ccc(C)cc2)N1C(=O)OCCC
25

Return inhibition for the following compound: C=CCOC(=O)N1C(=O)[C@@](CC)(c2ccccc2)N1C(=O)OC
10

Return inhibition for the following compound: CC[C@@]1(c2cccc(Cl)c2)C(=O)N(C(=O)OC(C)C)N1C(=O)OC(C)C
20

More entries:
Return inhibition for the following compound: CC[C@@]1(c2cccc(C)c2)C(=O)N(C(=O)OC(C)C)N1C(=O)OC(C)C
20

Return inhibition for the following compound: CCOC(=O)N1C(=O)[C@@](CC)(c2ccccc2)N1C(=O)OCC
15

Return inhibition for the following compound: CC[C@@]1(c2cccc(C)c2)C(=O)N(C(=O)OCc2ccccc2)N1C(=O)OCc1ccccc1
10

###

Biological target: Palmitoyl-protein thioesterase ABHD10, mitochondrial (Mus musculus)
Assay: competitive ABPP of Abhd10 versus anti-targets – biochemical, fluorescence, gel-based, mouse proteome, selectivity assay for PME-1 inhibitor project, late-stage follow-up (AID 588807)
Conditions: inhibition, at 1 µM, stronger effect = higher value
endpoint-name: inhibition (%)
// return numeric value only (unit: %, not printed)

Using Palmitoyl-protein thioesterase ABHD10, mitochondrial (Mus musculus) as the test system, report measured inhibition of CC[C@@]1(c2cccc(C)c2)C(=O)N(C(=O)OCc2ccccc2)N1C(=O)OCc1ccccc1 .
65

Using Palmitoyl-protein thioesterase ABHD10, mitochondrial (Mus musculus) as the test system, report measured inhibition of C=CCOC(=O)N1N(C(=O)OC)C(=O)[C@@]1(CC)c1ccccc1 .
60

Using Palmitoyl-protein thioesterase ABHD10, mitochondrial (Mus musculus) as the test system, report measured inhibition of C=CCOC(=O)N1C(=O)[C@@](CC)(c2ccc(C)cc2)N1C(=O)OCC=C .
90

Using Palmitoyl-protein thioesterase ABHD10, mitochondrial (Mus musculus) as the test system, report measured inhibition of CC[C@@]1(c2ccc(C)cc2)C(=O)N(C(=O)OC)N1C(=O)OC .
95

Using Palmitoyl-protein thioesterase ABHD10, mitochondrial (Mus musculus) as the test system, report measured inhibition of CC[C@@]1(c2ccc(Cl)cc2)C(=O)N(C(=O)OC)N1C(=O)OC .
100

More entries:
Using Palmitoyl-protein thioesterase ABHD10, mitochondrial (Mus musculus) as the test system, report measured inhibition of C=CCOC(=O)N1C(=O)[C@@](CC)(c2ccccc2)N1C(=O)OCC=C .
90

Using Palmitoyl-protein thioesterase ABHD10, mitochondrial (Mus musculus) as the test system, report measured inhibition of CC[C@@]1(c2cccc(C)c2)C(=O)N(C(=O)OC)N1C(=O)OC .
100

Using Palmitoyl-protein thioesterase ABHD10, mitochondrial (Mus musculus) as the test system, report measured inhibition of CC[C@@]1(c2ccccc2C)C(=O)N(C(=O)OC)N1C(=O)OC .
15

Using Palmitoyl-protein thioesterase ABHD10, mitochondrial (Mus musculus) as the test system, report measured inhibition of CCCOC(=O)N1C(=O)C(CC)(c2cccc(C)c2)N1C(=O)OCCC (stereo unspecified) .
95

Using Palmitoyl-protein thioesterase ABHD10, mitochondrial (Mus musculus) as the test system, report measured inhibition of CC[C@@]1(c2cccc(OC)c2)C(=O)N(C(=O)OC(C)C)N1C(=O)OC(C)C .
90

Using Palmitoyl-protein thioesterase ABHD10, mitochondrial (Mus musculus) as the test system, report measured inhibition of C=CCOC(=O)N1C(=O)[C@@](CC)(c2cccc(C)c2)N1C(=O)OC .
95

Using Palmitoyl-protein thioesterase ABHD10, mitochondrial (Mus musculus) as the test system, report measured inhibition of CCCOC(=O)N1C(=O)[C@@](CC)(c2ccc(C)cc2)N1C(=O)OCCC .
95

###

Target: Prolyl endopeptidase (Mus musculus) (UniProt Q9QUR6)
Sequence (Q9QUR6 whole entry, looked up): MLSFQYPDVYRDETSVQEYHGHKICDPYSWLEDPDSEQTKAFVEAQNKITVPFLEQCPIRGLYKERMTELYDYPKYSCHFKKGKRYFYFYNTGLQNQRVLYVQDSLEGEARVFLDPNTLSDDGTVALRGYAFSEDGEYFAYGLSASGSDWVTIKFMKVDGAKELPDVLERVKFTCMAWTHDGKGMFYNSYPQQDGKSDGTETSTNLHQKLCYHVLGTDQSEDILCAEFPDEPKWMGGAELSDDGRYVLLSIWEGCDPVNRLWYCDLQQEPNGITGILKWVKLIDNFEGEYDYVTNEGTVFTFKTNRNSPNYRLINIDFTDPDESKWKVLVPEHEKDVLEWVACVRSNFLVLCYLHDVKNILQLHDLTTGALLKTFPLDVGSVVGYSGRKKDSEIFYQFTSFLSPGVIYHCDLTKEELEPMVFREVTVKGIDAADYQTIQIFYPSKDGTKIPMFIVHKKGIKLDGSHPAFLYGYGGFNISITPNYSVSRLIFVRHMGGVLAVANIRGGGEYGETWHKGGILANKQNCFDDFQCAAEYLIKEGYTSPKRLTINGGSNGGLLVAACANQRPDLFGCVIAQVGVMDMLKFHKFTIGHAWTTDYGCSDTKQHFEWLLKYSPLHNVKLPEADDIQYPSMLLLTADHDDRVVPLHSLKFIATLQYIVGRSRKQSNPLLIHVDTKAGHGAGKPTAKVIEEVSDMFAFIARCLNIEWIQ
Assay: competitive ABPP of Abhd10 versus anti-targets – biochemical, fluorescence, gel-based, mouse proteome, selectivity assay for PME-1 inhibitor project, late-stage follow-up (AID 588807)
Conditions: PREP, anti-target, at 10 µM, stronger effect = higher value
endpoint-name: inhibition (%)
// return numeric value only (unit: %, not printed)

Using Prolyl endopeptidase (Mus musculus) (UniProt Q9QUR6) as the test system, report measured inhibition of CC[C@@]1(c2cccc(Cl)c2)C(=O)N(C(=O)OC)N1C(=O)OC .
90

More entries:
Using Prolyl endopeptidase (Mus musculus) (UniProt Q9QUR6) as the test system, report measured inhibition of CCOC(=O)N1C(=O)[C@@](CC)(c2ccccc2)N1C(=O)OCC .
90

Using Prolyl endopeptidase (Mus musculus) (UniProt Q9QUR6) as the test system, report measured inhibition of CC[C@@]1(c2ccc(Cl)cc2)C(=O)N(C(=O)OC)N1C(=O)OC .
50

###

System: Magl
Test: competitive ABPP of Abhd10 versus anti-targets – biochemical, fluorescence, gel-based, mouse proteome, selectivity assay for PME-1 inhibitor project, late-stage follow-up (AID 588807)
Conditions: anti-target, at 10 µM, stronger effect = higher value
Listed here: items and their measured inhibition.
// return numeric value only (unit: %, not printed)

These solved cases illustrate the format of a correct answer.
Return inhibition for the following compound: CC[C@@]1(c2ccc(C)cc2)C(=O)N(C(=O)OC(C)C)N1C(=O)OC(C)C
0

Return inhibition for the following compound: CC[C@]1(c2cccc(C)c2)C(=O)N(C(=O)OC(C)C)N1C(=O)OC(C)C
0

Return inhibition for the following compound: CC[C@@]1(c2ccc(OC)cc2)C(=O)N(C(=O)OC)N1C(=O)OC
10

Return inhibition for the following compound: CCCOC(=O)N1C(=O)[C@@](CC)(c2ccc(C)cc2)N1C(=O)OCCC
80

Moving on to another compound below.
Return inhibition for the following compound: CC[C@@]1(c2cccc(C)c2)C(=O)N(C(=O)OC)N1C(=O)OC(C)C
0

###

Listed here: items and their measured inhibition.
Target: UniProtKB Q6PE15
Sequence (Q6PE15 whole entry, looked up): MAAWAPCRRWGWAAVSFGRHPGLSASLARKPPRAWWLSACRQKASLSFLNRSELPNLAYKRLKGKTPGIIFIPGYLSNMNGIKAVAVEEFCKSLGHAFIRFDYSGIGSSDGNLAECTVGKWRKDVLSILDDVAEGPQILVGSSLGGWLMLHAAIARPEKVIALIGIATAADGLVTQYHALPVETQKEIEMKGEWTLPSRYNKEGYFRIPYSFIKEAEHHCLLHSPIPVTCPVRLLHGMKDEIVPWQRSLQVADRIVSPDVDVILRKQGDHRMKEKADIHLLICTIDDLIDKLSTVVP
Test: competitive ABPP of Abhd10 versus anti-targets – biochemical, fluorescence, gel-based, mouse proteome, selectivity assay for PME-1 inhibitor project, late-stage follow-up (AID 588807)
Settings: inhibition, at 0.1 µM, stronger effect = higher value
// return numeric value only (unit: %, not printed)

These solved cases illustrate the format of a correct answer.
Return inhibition for the following molecule: CC[C@@]1(c2ccc(C)cc2)C(=O)N(C(=O)OC)N1C(=O)OC
55

Return inhibition for the following molecule: C=CCOC(=O)N1C(=O)[C@@](CC)(c2cccc(C)c2)N1C(=O)OCC=C
35

Return inhibition for the following molecule: CC[C@]1(c2cccc(C)c2)C(=O)N(C(=O)OC(C)C)N1C(=O)OC(C)C
30

Return inhibition for the following molecule: CCOC(=O)N1C(=O)[C@@](CC)(c2cccc(C)c2)N1C(=O)OCC
75

Return inhibition for the following molecule: CC[C@@]1(c2cccc(C)c2)C(=O)N(C(=O)OCc2ccccc2)N1C(=O)OCc1ccccc1
20

More entries:
Return inhibition for the following molecule: CC[C@@]1(c2ccc(C)cc2)C(=O)N(C(=O)OC(C)C)N1C(=O)OC(C)C
90

Return inhibition for the following molecule: CC[C@@]1(c2cccc(OC)c2)C(=O)N(C(=O)OC(C)C)N1C(=O)OC(C)C
40

Return inhibition for the following molecule: CC[C@@]1(c2ccc(Cl)c(Cl)c2)C(=O)N(C(=O)OC)N1C(=O)OC
20

Return inhibition for the following molecule: CCOC(=O)N1C(=O)[C@@](CC)(c2ccccc2)N1C(=O)OCC
75

Return inhibition for the following molecule: C=CCOC(=O)N1N(C(=O)OC)C(=O)[C@@]1(CC)c1ccccc1
10

Return inhibition for the following molecule: CCOC(=O)N1C(=O)[C@@](CC)(c2ccc(C)cc2)N1C(=O)OCC
60

Return inhibition for the following molecule: CC[C@@]1(c2cccc(C)c2)C(=O)N(C(=O)OC)N1C(=O)OC(C)C
20

###

Listed here: items and their measured inhibition.
Target: UniProt:Q9QUR6
Test: competitive ABPP of Abhd10 versus anti-targets – biochemical, fluorescence, gel-based, mouse proteome, selectivity assay for PME-1 inhibitor project, late-stage follow-up (AID 588807)
Settings: PREP, anti-target, inhibition, at 1 µM, stronger effect = higher value
// return numeric value only (unit: %, not printed)

These solved cases illustrate the format of a correct answer.
Return inhibition for the following molecule: CCCOC(=O)N1C(=O)[C@@](CC)(c2ccc(C)cc2)N1C(=O)OCCC
25

Return inhibition for the following molecule: C=CCOC(=O)N1C(=O)[C@@](CC)(c2cccc(C)c2)N1C(=O)OCC=C
10

Return inhibition for the following molecule: CC[C@@]1(c2cccc(F)c2)C(=O)N(C(=O)OC)N1C(=O)OC
15

Return inhibition for the following molecule: C=CCOC(=O)N1C(=O)[C@@](CC)(c2ccc(C)cc2)N1C(=O)OCC=C
15

Return inhibition for the following molecule: CCOC(=O)N1C(=O)[C@@](CC)(c2cccc(C)c2)N1C(=O)OCC
45

Return inhibition for the following molecule: C=CCOC(=O)N1C(=O)[C@@](CC)(c2ccccc2)N1C(=O)OCC=C
10

More entries:
Return inhibition for the following molecule: CC[C@@]1(c2ccc(C)cc2)C(=O)N(C(=O)OC)N1C(=O)OC
20

Return inhibition for the following molecule: CC[C@@]1(c2cccc(C)c2)C(=O)N(C(=O)OC)N1C(=O)OC
20

Return inhibition for the following molecule: CC[C@@]1(c2cccc(C)c2)C(=O)N(C(=O)OC)N1C(=O)OC(C)C
35

Return inhibition for the following molecule: CC[C@@]1(c2cccc(Cl)c2)C(=O)N(C(=O)OC(C)C)N1C(=O)OC(C)C
50
